Source listed as patent US9023821B2.

# Tested on: human airway epithelial cells (HAECs)
# assayText: High-throughput sequencing (HTS) of miRNAs at four stages of differentiation of HAECs
# conditionsUsed: stage WD; Table VI
metric: Level of intensity of expression in log2 measured by high-throughput sequencing, WD (log2)
Give bare numbers, in log2.

Example substances with recorded Level of intensity of expression in log2 measured by high-throughput sequencing, WD:
- substance: "hsa-miR-140-3p: human miRNA, SEQ ID No. 5 (UACCACAGGGUAGAACCACGG; expressed or natural sequence; listed as Homo sapiens)"
  obsValue: 13.12
- substance: "hsa-miR-15a: human miRNA, SEQ ID No. 9 (UAGCAGCACAUAAUGGUUUGUG; expressed or natural sequence; listed as Homo sapiens)"
  obsValue: 7.68
- substance: "hsa-miR-16: human miRNA, SEQ ID No. 10 (UAGCAGCACGUAAAUAUUGGCG; expressed or natural sequence; listed as Homo sapiens)"
  obsValue: 5.35

Batch request: Level of intensity of expression in log2 measured by high-throughput sequencing, WD for each of the following substances.
1. hsa-miR-374a: human miRNA, SEQ ID No. 42 (UUAUAAUACAACCUGAUAAGUG; expressed or natural sequence; listed as Homo sapiens)
2. hsa-miR-378: human miRNA, SEQ ID No. 43 (ACUGGACUUGGAGUCAGAAGG; expressed or natural sequence; listed as Homo sapiens)

-- reply
1. 2.78
2. 11.87

---

Would you kindly list Intensity of the level of expression in log2 in pyramidal cells (323(−)) for each of these substances?
# Test system: basal cells and pyramidal cells of the airway epithelium
# assayText: miRNA expression in sorted basal cells versus pyramidal cells (ciliated + secretory), HTS and Agilent chips
# Set-up: species or system human
# conditionsUsed: pyramidal cells (ciliated + secretory)
One number for each entry, in log2.

Batch request: Intensity of the level of expression in log2 in pyramidal cells (323(−)) for each of the following substances.
1. hsa-miR-141: human miRNA, SEQ ID No. 6 (UAACACUGUCUGGUAAAGAUGG; expressed or natural sequence; listed as Homo sapiens)
2. hsa-miR-378: human miRNA, SEQ ID No. 43 (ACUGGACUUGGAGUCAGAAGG; expressed or natural sequence; listed as Homo sapiens)
3. hsa-miR-191: human miRNA, SEQ ID No. 13 (CAACGGAAUCCCAAAAGCAGCUG; expressed or natural sequence; listed as Homo sapiens)

-- reply
[8.24, 1.68, 0.14]

---

# System: human airway epithelial cells (HAECs)
# assayText: High-throughput sequencing (HTS) of miRNAs at four stages of differentiation of HAECs
# conditionsUsed: healthy human airway epithelial tissue, stage WD
# From the text: The total RNAs were extracted from HAECs cultivated at the air-liquid interface at four stages of differentiation: ALI-D0 (0 day), ALI-D7 (7 days), ALI-FC (during appearance of the first cilia at about 14 days) and ALI-WD (wholly differentiated at about 21 days). The cells are lysed in reagent with Trizol® (Invitrogen). The total RNAs containing small RNAs and microRNAs are purified on Qiagen RNEasy columns (Qiagen) according to the supplier's instructions. […]
metric: Level of intensity of expression in log2 At the differentiated stage (WD) measured in HTS (log2)
One number for each entry, in log2.

Example substances with recorded Level of intensity of expression in log2 At the differentiated stage (WD) measured in HTS:
- substance: "hsa-miR-29a: human miRNA, SEQ ID No. 31 (UAGCACCAUCUGAAAUCGGUUA; expressed or natural sequence; listed as Homo sapiens)"
  units: "log2"
  obsValue: 14.53
- substance: "hsa-miR-425: human miRNA, SEQ ID No. 44 (AAUGACACGAUCACUCCCGUUGA; expressed or natural sequence; listed as Homo sapiens)"
  units: "log2"
  obsValue: 9.53
- substance: "hsa-miR-22: human miRNA, SEQ ID No. 23 (AAGCUGCCAGUUGAAGAACUGU; expressed or natural sequence; listed as Homo sapiens)"
  units: "log2"
  obsValue: 11.22
- substance: "hsa-miR-16: human miRNA, SEQ ID No. 10 (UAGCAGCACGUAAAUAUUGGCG; expressed or natural sequence; listed as Homo sapiens)"
  units: "log2"
  obsValue: 5.35

Note: attention shifts to another entry.
-- ask GET /values?readout=Level of intensity of expression in log2 At the differentiated stage (WD) measured in HTS&item= hsa-miR-1975: human miRNA, SEQ ID No. 15 (CCCCCACAACCGCGCUUGACUAGCU; expressed or natural sequence; listed as Homo sapiens)
-- reply 11.22
